assay: clinical; details: female, human, in vivo, po, 0.35 mg

| MOLECULAR_STRING | UNITS_OF_MEASURE | AUC(0-t) |
| --- | --- | --- |
| C#C[C@]1(O)CC[C@H]2[C@@H]3CCC4=CC(=O)CC[C@@H]4[C@H]3CC[C@@]21C | µg·h/mL | 0.0167 |

###

assay: clinical; conditions: female, human, in vivo, po, 0.35 mg

| MOLECULAR_STRING | UNITS_OF_MEASURE | AUC(0-inf) |
| --- | --- | --- |
| C#C[C@]1(O)CC[C@H]2[C@@H]3CCC4=CC(=O)CC[C@@H]4[C@H]3CC[C@@]21C | ng·h/mL | 33.8 |
